// MIC collected for MMX 9711 Bacteroides salyersiae
The reply should contain only the number, in µg/mL.

Below, 2 compounds whose answers are already recorded.
>>> assay_value("Cc1ncc([N+](=O)[O-])n1CCO [Metronidazole]")
2
>>> assay_value("CO[C@H]1/C=C/O[C@@]2(C)Oc3c(C)c(O)c4c(O)c(c5c(nc6cc(C)ccn65)c4c3C2=O)NC(=O)/C(C)=C\\C=C\\[C@H](C)[C@H](O)[C@@H](C)[C@@H](O)[C@@H](C)[C@H](OC(C)=O)[C@@H]1C [Rifaximin]")
0.5

From here, focus on the item given below.
INPUT: # get_value(readout='MIC', item= O=C(O)c1cn(C2CC2)c2cc(N3CCNCC3)c(F)cc2c1=O [Ciprofloxacin] )
OUTPUT: 16

====

Tested on: MMX 3478 Bacteroides fragilis
measure name: MIC (µg/mL)
The reply should contain only the number, in µg/mL.

Below, 3 molecules whose answers are already recorded.
>>> assay_value("CO[C@H]1/C=C/O[C@@]2(C)Oc3c(C)c(O)c4c(O)c(c5c(nc6cc(C)ccn65)c4c3C2=O)NC(=O)/C(C)=C\\C=C\\[C@H](C)[C@H](O)[C@@H](C)[C@@H](O)[C@@H](C)[C@H](OC(C)=O)[C@@H]1C")
0.25
>>> assay_value("CO[C@@]1(NC(=O)C(C(=O)O)c2ccsc2)C(=O)N2[C@@H](C(=O)O)C(C)(C)S[C@@H]21 (stereo partly shown)")
256
>>> assay_value("O=C(O)c1cn(C2CC2)c2cc(N3CCNCC3)c(F)cc2c1=O")
16

From here, focus on the item given below.
INPUT: Return MIC measured with MMX 3478 Bacteroides fragilis given this molecule: `Cc1ncc([N+](=O)[O-])n1CCO`
OUTPUT: 8
